- Assay system: T1, recombinant human TIGIT (human, UniProt Q495A1 22-141, limits assumed)
- T1 construct: recombinant human TIGIT used in Carterra SPR; also called hTIGIT
- T1 sequence (looked up): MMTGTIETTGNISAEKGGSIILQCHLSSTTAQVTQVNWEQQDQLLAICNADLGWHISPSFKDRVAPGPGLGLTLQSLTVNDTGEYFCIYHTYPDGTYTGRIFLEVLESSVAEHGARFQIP
- Test: SPR Carterra, average
Experimental readout: pKd
// scale note: pKd = -log10(conc_M); give the bare number

-- ask Using the record for TIGIT-SC150 (Fc fusion, VHH-Fc fusion in assay) VHH: EVQLVESGGGLVQPGGSLRLSCAASGFTLENNMMGWFRQAPGKEREFVAAISRSGTLKAYADSVKGRFTISADNSKNTAYLQVNSLKPEDTAVYYCVRVRGYSGYDCDYWGQGTLVTVSS , report its pKd.
-- reply 7.00

-- ask Follow-up item: TIGIT-SC142 (Fc fusion, VHH-Fc fusion in assay) VHH: EVQLVESGGGLVQPGGSLRLSCAASGFSFDRWAMGWFRQAPGKEREFVAAIGWSGNLKAYADSVKGRFTISADNSKNTAYLQMNSLKPEDTAVYYCASGDGYSMDYFDPWGQGTLVTVSS
-- reply 7.18

-- ask Moving on to the next binder: TIGIT-SC179 (Fc fusion, VHH-Fc fusion in assay) VHH: EVQLVESGGGLVQPGGSLRLSCAASGFTFSPSWMGWFRQAPGKEREWVASVLRGGYTWYADSVKGRFTISADNSKNTAYLQMNSLKPEDTAVYYCASEVASGETDYWGQGTLVTVSS
-- reply 7.29

-- ask Also, TIGIT-SC163 (Fc fusion, VHH-Fc fusion in assay) VHH: EVQLVESGGGLVQPGGSLRLSCAASGFTFDRSWMGWFRQAPGKEREWVASVLRGGYTWYADSVKGRFTISADNSKNTAYLQMNSLKPEDTAVYYCATDKRGPHPDYWGQGTLVTVSS please.
-- reply 7.06

-- ask And then TIGIT-SC52 (Fc fusion, VHH-Fc fusion in assay) VHH: EVQLVESGGGLVQPGGSLRLSCAASGFLFDSYAMGWFRQAPGKEREFVAAISTGGGWRTYADSVKGRFTISADNSKNTAYLQMNSLKPEDTAVYYCAKRGNDNWYFDLWGQGTLVTVSS , what is it?
-- reply 7.75

-- ask Could you do the same for TIGIT-SC137 (Fc fusion, VHH-Fc fusion in assay) VHH: EVQLVESGGGLVQPGGSLRLSCAASGFTLENNMMGWFRQAPGKEREFVAAISRSGTLKAYADSVKGRFTISADNSKNTAYLQMNSLKPEDTAVYYCSLVSGPRWYWGQGTLVTVSS , please?
-- reply 6.99

-- ask Then this binder: TIGIT-SC126 (Fc fusion, VHH-Fc fusion in assay) VHH: EVQLVESGGGLVQPGGSLRLSCAASGSIFSGNVMGWFRQAPGKERELVAAISNSASSTVYADSVKGRFTISADNSKNTAYLQMNSLKPEDTAVYYCARDWNLFDYWGQGTLVTVSS
-- reply 7.73
